The measurements presented in this section are drawn from patent US10512268B2.

Test system: Ipomoea hederacea (IPOHE)
Assay: Further testing, post-emergence application
Format: in vivo
Settings: 1000 g/h, after 13 days
Protocol: Seeds of a variety of test species are sown in standard soil in pots (Lolium perenne (LOLPE), Solanum nigrum (SOLNI), Amaranthus retoflexus (AMARE), Setaria faberi (SETFA), Echinochloa crus-galli (ECHCG), Ipomoea hederacea (IPOHE)). […] After 13 days for pre and post-emergence, the test is evaluated for the percentage damage caused to the plant. […]
Here the recorded percentage damage caused to the plant, five point scale is given for each entry.

> print(dat)
                                   compound  measured.result
1  CCn1nnnc1NC(=O)c1nn(C)c(=O)c(C2CCCCC2)c1Cl    5 (5=80-100%)
2  Cn1nnnc1NC(=O)c1nn(C)c(=O)c(C2CCCCC2)c1Cl [Compound 1.031]     4 (4=60-79%)
3  Cn1nnnc1NC(=O)c1nn(C)c(=O)c(C2CCCCC2)c1Cl [Compound 1.030]     4 (4=60-79%)
4  CCCn1nnnc1NC(=O)c1nn(C)c(=O)c(C2CCCCC2)c1Cl    5 (5=80-100%)

Proceeding to the next compound to report its percentage damage caused to the plant, five point scale.
What is its percentage damage caused to the plant, five point scale for Ipomoea hederacea (IPOHE)? Entry: CC1CCC(c2c(Cl)c(C(=O)Nc3nnnn3C)nn(C)c2=O)CC1 (centres unmarked) 5 (5=80-100%)
